Catalogue of TGI values
- Test system: HT29 colon
- ASSAY_COMMENT: NCI tumour cell line growth inhibition, 48 h
Peptide text beside a SMILES is read from it. * marks the point of attachment. X26 = Clc1c(Cl)c(Cl)c(O*)c(Cl)c1Cl; Boc = CC(C)(C)OC(=O)*; OBn = c1ccc(CO*)cc1; Bn = c1ccc(C*)cc1
REPORTED_ENDPOINT: TGI

>>> result("Fc1cccc(Cl)c1C1SCc2nc3ccccc3n21 (centres undefined)")
"> 100 µM"
>>> result("C=C(C)[C@H]1CC(=O)/C(C)=C\\CC/C(C)=C/CC[C@@]2(C)O[C@@H]2C1")
"33.7 µM"
>>> result("CC(=O)OCC(=O)O[C@@H]1[C@H]2[C@@H](OC(=O)c3ccccc3)[C@@H](C)C[C@]2(O)[C@H](OC(C)=O)[C@@]2(C)C[C@]1(OC(C)=O)C[C@H]1C(=O)C(C)(C)[C@@H](OC(C)=O)[C@@H]12")
"> 25 µM"
>>> result("C[n+]1cc2c3c(ccc2c2ccc4cc5c(cc4c21)OCO5)OCO3")
"1.87 µM"
>>> result("O=C1/C(=C/c2ccncc2)C(n2cccc2)c2c(Br)sc(Br)c21 (centres undefined)")
"23.5 µM"
>>> result("COc1cc2cc(Oc3ccc(NC(=O)c4cccc(C(F)(F)F)c4)cc3)c(C)nc2cc1OC")
"> 100 µM"
>>> result("C=C1C(=O)O[C@@H]2C[C@@]3(C)CC(=O)C=C(C)[C@@H]3C[C@H]12")
"24.6 µM"
>>> result("Cc1ccc(C(=O)Cc2nc3c([nH]c2=O)c(C)nn3-c2ccccc2)c(C)c1")
"> 10 µM"
>>> result("O=P(OCc1ccccc1)(OCc1ccccc1)C(O)/C=C/c1ccccc1 (centres undefined)")
"45.4 µM"
>>> result("Oc1c(OCc2nnc(CCCCCCCCc3nnc(COc4ccc5ccccc5c4O)o3)o2)ccc2ccccc12")
"> 100 µM"
>>> result("NC(Cc1[nH]nc2ccccc12)C(=O)O (centres undefined)")
"> 100 µM"
>>> result("Cc1ccc(S(=O)(=O)c2c(O)c3ccc(O)c(C)c3oc2=O)cc1")
"> 100 µM"
>>> result("CCC1(Br)C(=O)NC(=O)N(C2CC(O)C(CO)O2)C1N=[N+]=[N-] (centres undefined)")
"> 100 µM"
>>> result("CC(C)CC(NC(=O)C(CCC(=O)OCc1ccccc1)NC(=O)OC(C)(C)C)C(=O)NC(COCc1ccccc1)C(=O)NC(Cc1ccccc1)C(=O)Oc1c(Cl)c(Cl)c(Cl)c(Cl)c1Cl (centres undefined) (Boc-E(OBn)LS(Bn)F-X26; configuration not given here)")
"> 100 µM"
>>> result("O=c1ccn(-c2ccccn2)c(=O)n1-c1ccccn1")
"> 100 µM"
>>> result("CC(=O)c1cccc(N(/C=C/C(=O)C(F)(F)F)CC(=O)c2ccc(Cl)cc2)c1")
"> 100 µM"
>>> result("Cc1cn(CCCCCOC(=O)NC(CCCNC(N)=O)C(=O)O)c(=O)[nH]c1=O (centres undefined)")
"> 100 µM"
>>> result("N#CC(C#N)SCc1ccccc1")
"62.8 µM"
>>> result("C[N+]1(CCN=C=NC2CCCCC2)CCOCC1")
"> 100 µM"
